tested-system: HLA-A*0202 (human)
assay-info: competition with 125I-labelled standard peptide for purified HLA, gel filtration
experimental-endpoint: binding affinity ratio (IC50 of standard peptide / IC50 of test peptide)

Some solved cases for reference:
| binder | observed-result |
| --- | --- |
| PAKITDVVKVL (modifications not checked) [Kallikrein 129 …] | 0.0006 |
| PAELTDAV (modifications not checked) [PSA 125 PAELTDAV] | -0.0001 |

A. PAVYTKVV (modifications not checked) [Kallikrein 240 PAVYTKVV]
B. PLIQSRIV (modifications not checked) [Kallikrein 19 PLIQSRIV]
C. PAELTDAVKVM (modifications not checked) [PSA 125 …]
D. PLYNMSLL (modifications not checked) [Kallikrein 99 PLYNMSLL]
E. PAKITDVV (modifications not checked) [Kallikrein 129 PAKITDVV]
Problem: // ranking: key=binding affinity ratio (IC50 of standard peptide / IC50 of test peptide), reverse=True Give the labels in the order specified.
Solution: C, D, E, B, A
(C: 0.0028, D: 0.0008, E: 0.0003, B: 0.0002, A: -0.0001)
